growth inhibition values, listed per item
# assayDetails: NCI Yeast Anticancer Drug Screen. Data for the mlh1 rad18 strain (AID 175)
# settings: S. cerevisiae mlh1 rad18 strain growth inhibition; at 50.0 µM; stronger effect = higher value
Compounds without any hit were thinned out: in the full panel of roughly 79,000, 15% have a hit.
// units = %; emit number, no label

COc1cc(/C=C2\N=C(C)N(n3c(-c4ccccc4)nc4ccccc4c3=O)C2=O)cc(OC)c1OC :: 7.3
CCCCCCCCCCCCCCCC(=O)OCC1OC(n2cc(F)c(=O)[nH]c2=O)C(NC(=O)N(CCCl)N=O)C(O)C1O (stereo unspecified) :: -23.1
COc1ccc(OC)c(NC(=O)C2=C(C)NC(C)=C(C(=O)Nc3cc(OC)ccc3OC)C2c2cccc([N+](=O)[O-])c2)c1 :: 4.25
Cc1nc(N/N=C/c2ccccc2Cl)[nH]c(=O)c1CCO :: 4.15
O=C(OCc1ccccc1CN1CCOCC1)c1cccc(Cl)c1 :: 7.35
CC1(C)COC(c2cc(Br)ccc2Br)=N1 :: 1.35

Measured growth inhibition, O=C(NCCN1CCCCC1)c1cccc(I)c1 : 16

Measured growth inhibition, O=C(Nc1ccccc1)Oc1ccc(C2CCCCC2)cc1 : 54.6

====

# assayDetails: NCI Yeast Anticancer Drug Screen. Data for the cln2 rad14 strain (AID 165);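 also: 0% = growth equal to vehicle treated cultures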
# settings: S. cerevisiae cln2 rad14 strain, at 50.0 µM, stronger effect = higher value
The panel holds about 79,000 compounds, 15% with a hit somewhere; the sample as a whole holds those more often.
growth inhibition values, listed per item
// units = %; emit number, no label

Example entries and their recorded answers appear below.
Cc1ccc(I)c(C)c1 :: -3.6
COC(=O)C(=C/c1ccc(OC)cc1)/C(C(=O)O)=C(/C)c1ccccc1 :: -11.2
Cc1nc2cncnc2n(CCN2CCOCC2)c1=O :: -2.35

Alright, here's another compound for you.
Measured growth inhibition, CC(=O)Nc1ccc(S(=O)(=O)NNc2nc(N3CCCC3)nc(N3CCCC3)n2)cc1 : 1.8

====

# assayDetails: NCI Yeast Anticancer Drug Screen. Data for the cln2 rad14 strain (AID 165);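 also: 0% = growth equal to vehicle treated cultures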
# settings: S. cerevisiae cln2 rad14 strain, at 50.0 µM, stronger effect = higher value
This is part of a sample that, as a whole, favours compounds with a hit. Of some 79,000 tested, about 15% had one in any assay.
readoutKind: growth inhibition (%)
// units = %; emit number, no label

OC1CCCCCCCCCCC1C(O)(C(F)(F)F)C(F)(F)F (stereo unspecified) :: 99
NC(Cc1ccccc1CP(=O)(O)O)C(=O)O (stereo unspecified) :: -4.9
O=C(Nc1ccc(Cl)cc1)Oc1ccc(Br)cc1Br :: 4.65
Cc1cc(N(CCC#N)CCC#N)ccc1/C(N=Nc1ccccc1)=N\NC(=O)c1ccccc1 :: -8.5
CCN(CC)CCC(=O)Nc1cc(OC)cc2cccnc12 :: -21.1

Measured growth inhibition, CCN(CC)CCCNc1ccnc2c(N)cccc12 : 9.75

Measured growth inhibition, CC(C)(C)C1=CC(=N/N=c2\scc(-c3ccccc3)n2Cc2ccccc2)C=C(C(C)(C)C)C1=O : -29.5

Measured growth inhibition, C[C@H](CCc1nc(C#N)c(N)o1)[C@H]1CC[C@H]2[C@@H]3CCC4C[C@@H](O)CC[C@]4(C)[C@H]3C[C@@H](O)[C@]12C (stereo partly specified) : 87.7

Measured growth inhibition, Cn1c(=O)c2c(no[n+]2[O-])c2ccccc21 : 14.1

Measured growth inhibition, Nc1nc2nc[n-]c2c(=O)[nH]1.[NH2-].[NH2-].[NH2-].[NH2-].[NH2-].[Ru+6] : 2.5

Measured growth inhibition, O=C=Nc1cccc([N+](=O)[O-])c1 : -5.05

Measured growth inhibition, COC12CC3C4CCC5CC(O)CCC5(C)C4CCC3(C)C1C(C)C1(CCC(C)CO1)O2 (stereo unspecified) : 19.8

Measured growth inhibition, CCCCCCCCCCCC(=O)Nc1ccc(N(C)C(C)=O)cc1 : -1.35

Measured growth inhibition, COc1ccccc1N=Nc1c(-c2ccccc2)nn(C(=O)CC(=O)Nc2cccc(C)c2)c1-c1ccccc1 : 5.65

Measured growth inhibition, Cc1ccc(/[N+]([O-])=N/N2C(=O)c3ccccc3C2=O)cc1 : -23.5

Measured growth inhibition, CC1=C2CCCCC2(C)C=C(C(=O)O)C1=O (stereo unspecified) : 34.6

Measured growth inhibition, Nc1nc2cc(Cl)c(O)cc2o1 : -6.7

Measured growth inhibition, CC1=Nn2c(nnc2-c2ccc(Cl)cc2)NC(C)(C)C1 : 7.95

Measured growth inhibition, CNCC(=O)Nc1ccc2c(c1)C(=O)c1ccc(NC(=O)CNC)cc1C2=O : -2.25
